Record form. Attribute: %Inh. Fill in for each entry.
tested on: AKT3; details: concentration: 1 μM, replicates: in singlicate; n = 1;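 note: KINOMEscan kinase panel screen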
Express it in %; write the number only.

Input line: Any idea what its %Inh is? The molecule is Clc1cc(Nc2ncnc3cc[nH]c23)ccc1OCc1ccccn1
Output line: 5

Input line: Any idea what its %Inh is? The molecule is CCc1nc(-c2cccc(N(C)S(=O)(=O)c3ccccc3)c2)c(-c2ccnc(Nc3ccc(N4CCN(C(C)=O)CC4)nc3)n2)s1
Output line: 0

Input line: Any idea what its %Inh is? The molecule is COc1cc2ncnc(Nc3ccc(OCc4ccccc4Br)c(Cl)c3)c2cc1OC.Cl
Output line: 0

Input line: Any idea what its %Inh is? The molecule is O=C(Nc1n[nH]c2nc(-c3ccco3)c(Br)cc12)c1ccc(CN2CCCC2)cc1.O=C(O)[C@H](O)[C@@H](O)C(=O)O
Output line: 8

Input line: Any idea what its %Inh is? The molecule is CN1CCC(n2cnc(-c3ccc(F)cc3)c2-c2ccnc(NC3CCNCC3)n2)CC1
Output line: 32

Input line: Any idea what its %Inh is? The molecule is Cn1ccc2ncnc(Nc3ccc(Oc4cccc(Cl)c4)c(Cl)c3)c21
Output line: 0

Input line: Any idea what its %Inh is? The molecule is COc1ccc(Nc2nccc(N3CCC(NC(=O)c4cccc(NC(C)=O)c4)C3)n2)cc1 (stereo not drawn)
Output line: 23

Input line: Any idea what its %Inh is? The molecule is Cc1cc(N2CCC(NS(=O)(=O)c3ccc(F)cc3)CC2)nc(Nc2cccc(C#N)c2)n1.O=C(O)C(F)(F)F
Output line: 0

Input line: Any idea what its %Inh is? The molecule is Cc1ccc(O)cc1Nc1cc(C(F)(F)F)nc2ccc(-c3ccncc3)cc12
Output line: 0

Input line: Any idea what its %Inh is? The molecule is Fc1cccc(COc2ccc(Nc3ncnc4cc[nH]c34)cc2Cl)c1
Output line: 0

Input line: Any idea what its %Inh is? The molecule is Cc1ccc(C)c(NC(=O)NCCNc2ccnc(Nc3ccc(F)cc3)n2)c1
Output line: 0

Input line: Any idea what its %Inh is? The molecule is OCCOCCn1ccc2ncnc(Nc3ccc(Oc4cccc(Cl)c4)c(Cl)c3)c21
Output line: 0

Input line: Any idea what its %Inh is? The molecule is Nc1nc(-c2cccnc2)c(-c2ccnc3ccccc23)s1
Output line: 0

Input line: Any idea what its %Inh is? The molecule is COc1ccc(NC(=O)c2ccc(-c3cc(-c4nnc(C)o4)ccc3C)cc2)cc1
Output line: 0

Input line: Any idea what its %Inh is? The molecule is CSc1ccc(NC2=C(c3ccccc3Cl)C(=O)NC2=O)cc1
Output line: 0

Input line: Any idea what its %Inh is? The molecule is CN1c2ccc(-c3ccc(C(=O)NCCO)cc3)cc2-c2[nH]ncc2S1(=O)=O
Output line: 12

Input line: Any idea what its %Inh is? The molecule is COc1cc2c(Nc3cccc(NC(=O)c4ccccc4)c3)ncnc2cc1OCCCN1CCOCC1
Output line: 0

Input line: Any idea what its %Inh is? The molecule is Cn1cc(-c2ccc3c(c2)CCN3C(=O)Cc2cccc(C(F)(F)F)c2)c2c(N)ncnc21
Output line: 53

----------
test system: TYK2(JH2domain-pseudokinase); conditions: concentration: 1 μM, replicates: in singlicate; n = 1
Record form. Attribute: %Inh. Fill in for each entry.
Express it in %; write the number only.

Input line: Param readout = %Inh; param system = TYK2(JH2domain-pseudokinase); param query = Fc1cccc(COc2ccc(Nc3ncnc4cc[nH]c34)cc2Cl)c1 ; response: value
Output line: 28

Input line: Param readout = %Inh; param system = TYK2(JH2domain-pseudokinase); param query = CCCc1ccc(S(=O)(=O)NC2CCN(c3ccnc(Nc4ccc(OC)cc4)n3)C2)cc1 (stereo not shown) ; response: value
Output line: 46

Input line: Param readout = %Inh; param system = TYK2(JH2domain-pseudokinase); param query = Nc1nc(-c2ccc3c(N)n[nH]c3c2)cc(N2CCC[C@@H](C(=O)Nc3ccccc3)C2)n1.O=C(O)C(F)(F)F.O=C(O)C(F)(F)F ; response: value
Output line: 1

Input line: Param readout = %Inh; param system = TYK2(JH2domain-pseudokinase); param query = Fc1ccc(-c2ncn(CCCNCc3ccccc3)c2-c2ccncc2)cc1 ; response: value
Output line: 0

Input line: Param readout = %Inh; param system = TYK2(JH2domain-pseudokinase); param query = COc1ccc(Nc2nccc(N3CCC(NC(=O)Nc4ccc5c(c4)OCO5)C3)n2)cc1 (stereo not shown) ; response: value
Output line: 15

Input line: Param readout = %Inh; param system = TYK2(JH2domain-pseudokinase); param query = O=C(Nc1ccccc1)Nc1ccc(Oc2ccc3nccn3n2)cc1 ; response: value
Output line: 0

Input line: Param readout = %Inh; param system = TYK2(JH2domain-pseudokinase); param query = CCn1c(-c2ccncc2)nc2cnccc21 ; response: value
Output line: 0

Input line: Param readout = %Inh; param system = TYK2(JH2domain-pseudokinase); param query = CSc1ccc(NC2=C(c3ccccc3Cl)C(=O)NC2=O)cc1 ; response: value
Output line: 0

Input line: Param readout = %Inh; param system = TYK2(JH2domain-pseudokinase); param query = Nc1nc(-c2cccnc2)c(-c2ccnc3ccccc23)s1 ; response: value
Output line: 62

Input line: Param readout = %Inh; param system = TYK2(JH2domain-pseudokinase); param query = O=C(Nc1n[nH]c2nc(-c3ccco3)c(Br)cc12)c1ccc(CN2CCCC2)cc1.O=C(O)[C@H](O)[C@@H](O)C(=O)O ; response: value
Output line: 0

Input line: Param readout = %Inh; param system = TYK2(JH2domain-pseudokinase); param query = Fc1cccc(COc2ccc(Nc3ncnc4nn5ccccc5c34)cc2Cl)c1 ; response: value
Output line: 24

Input line: Param readout = %Inh; param system = TYK2(JH2domain-pseudokinase); param query = Cl.Fc1ccccc1COc1ccc(Nc2ncnc3ccc(-c4nnc(C(F)(F)F)o4)cc23)cc1Cl ; response: value
Output line: 12

Input line: Param readout = %Inh; param system = TYK2(JH2domain-pseudokinase); param query = Cc1cc(N2CCC(NS(=O)(=O)c3ccc(F)cc3)CC2)nc(Nc2cccc(C#N)c2)n1.O=C(O)C(F)(F)F ; response: value
Output line: 2

Input line: Param readout = %Inh; param system = TYK2(JH2domain-pseudokinase); param query = Nc1nc(-c2ccc3c(N)n[nH]c3c2)cc(N2CCCCC2)n1 ; response: value
Output line: 5

Input line: Param readout = %Inh; param system = TYK2(JH2domain-pseudokinase); param query = Cl.c1ccc(Cn2ccc3cc(Nc4ncnc5ccccc45)ccc32)cc1 ; response: value
Output line: 0

Input line: Param readout = %Inh; param system = TYK2(JH2domain-pseudokinase); param query = Cc1ccc(O)cc1Nc1cc(C(F)(F)F)nc2ccc(-c3ccncc3)cc12 ; response: value
Output line: 0

Input line: Param readout = %Inh; param system = TYK2(JH2domain-pseudokinase); param query = N#Cc1ccc(Oc2ccc(Nc3ncnc4cc[nH]c34)cc2Cl)cc1 ; response: value
Output line: 11

Input line: Param readout = %Inh; param system = TYK2(JH2domain-pseudokinase); param query = Clc1cccc(-c2nc(Nc3ccncc3)c3ccccc3n2)c1 ; response: value
Output line: 13

Input line: Param readout = %Inh; param system = TYK2(JH2domain-pseudokinase); param query = CNc1nccc(-c2c(-c3ccc(F)cc3)ncn2CCCN2CCOCC2)n1 ; response: value
Output line: 16

----------
system: CSNK1G2; conditions: concentration: 1 μM, replicates: in singlicate; n = 1
Record form. Attribute: %Inh. Fill in for each entry.
Don't forget the unit after the number, please.

Input line: Any idea what its %Inh is? The compound is O=C(c1ccc(-c2cc(-c3c[nH]nc3-c3ccccn3)ccn2)cc1)N1CCCC1
Output line: 9%

Input line: Any idea what its %Inh is? The compound is COc1ccc(NC(=O)c2ccc(-c3cc(-c4nnc(C)o4)ccc3C)cc2)cc1
Output line: 0%

Input line: Any idea what its %Inh is? The compound is Cc1cccc(-c2nc(Nc3ccc4[nH]nnc4c3)c3ccccc3n2)n1
Output line: 0%

Input line: Any idea what its %Inh is? The compound is Nc1nc(-c2ccccn2)c(-c2ccnc3ccccc23)s1
Output line: 0%

Input line: Any idea what its %Inh is? The compound is O=C(Nc1n[nH]c2nc(-c3ccco3)c(Br)cc12)c1ccc(CN2CCCC2)cc1.O=C(O)[C@H](O)[C@@H](O)C(=O)O
Output line: 0%

Input line: Any idea what its %Inh is? The compound is CNc1nccc(-c2c(-c3ccc(F)cc3)ncn2C2CCN(C)CC2)n1
Output line: 0%

Input line: Any idea what its %Inh is? The compound is Cc1ccc(C)c(NC(=O)NCCNc2ccnc(Nc3ccc(F)cc3)n2)c1
Output line: 0%

Input line: Any idea what its %Inh is? The compound is CC(=O)Nc1n[nH]c2ncc(-c3ccccc3)cc12
Output line: 0%

Input line: Any idea what its %Inh is? The compound is Nc1nccc2scc(-c3ccc4c(c3)CCN4C(=O)Cc3cc(F)ccc3F)c12
Output line: 0%

Input line: Any idea what its %Inh is? The compound is Cl.Cl.c1ccc(-c2cc3ccncc3cc2OC2CCNCC2)cc1
Output line: 0%

Input line: Any idea what its %Inh is? The compound is CCC(CC)(CC)n1cnc2c(N)ncnc21
Output line: 0%

Input line: Any idea what its %Inh is? The compound is O=c1cc(N2CCOCC2)nc2n(Cc3cccc(Cl)c3)ccn12
Output line: 0%

Input line: Any idea what its %Inh is? The compound is COc1cc2ncnc(Nc3ccc(OCc4ccccc4Br)c(Cl)c3)c2cc1OC.Cl
Output line: 0%

Input line: Any idea what its %Inh is? The compound is Cc1ccc(O)cc1Nc1cc(C(F)(F)F)nc2ccc(-c3ccncc3)cc12
Output line: 1%

Input line: Any idea what its %Inh is? The compound is Cl.c1ccc(Cn2ncc3cc(Nc4ncnc5ccccc45)ccc32)cc1
Output line: 0%

Input line: Any idea what its %Inh is? The compound is CCn1c(-c2ccncc2)nc2cnccc21
Output line: 0%

Input line: Any idea what its %Inh is? The compound is COc1ccc(Nc2nccc(N3CCC(NC(=O)Nc4ccc5c(c4)OCO5)C3)n2)cc1 (stereo not shown)
Output line: 2%

Input line: Any idea what its %Inh is? The compound is NC(=O)c1sc(-n2cnc3ccccc32)cc1OCc1ccccc1F
Output line: 0%

Input line: Any idea what its %Inh is? The compound is O=C(Nc1ccccc1F)NC1CCN(c2ccnc(Nc3ccc(F)cc3)n2)C1 (stereo not shown)
Output line: 100%

Input line: Any idea what its %Inh is? The compound is CN1CCC(n2cnc(-c3ccc(F)cc3)c2-c2ccnc(NC3CCNCC3)n2)CC1
Output line: 0%

Input line: Any idea what its %Inh is? The compound is CC(C)(C)c1ccc(-n2cnc3c(N)ncnc32)cc1
Output line: 13%

Input line: Any idea what its %Inh is? The compound is C[C@H]1CC[C@@H](C(=O)Nc2ccccc2)CN1c1cc(-c2ccc3c(N)n[nH]c3c2)nc(N)n1
Output line: 0%

Input line: Any idea what its %Inh is? The compound is COc1ccc(-c2nc3n(c2-c2ccncc2)CCC3)cc1
Output line: 0%

Input line: Any idea what its %Inh is? The compound is CNc1nccc(-c2c(-c3ccc(F)cc3)ncn2CCCN2CCOCC2)n1
Output line: 10%

Input line: Any idea what its %Inh is? The compound is Fc1cccc(COc2ccc(Nc3ncnc4sc(-c5ccc[nH]5)cc34)cc2Cl)c1
Output line: 3%

Input line: Any idea what its %Inh is? The compound is Fc1cccc(COc2ccc(Nc3ncnc4nn5ccccc5c34)cc2Cl)c1
Output line: 0%

Input line: Any idea what its %Inh is? The compound is Fc1ccc(-c2ncn(CCCNCc3ccccc3)c2-c2ccncc2)cc1
Output line: 7%

Input line: Any idea what its %Inh is? The compound is C[C@@H]1CCN(C(=O)CO)C[C@@H]1N(C)c1ncnc2[nH]ccc12
Output line: 0%

Input line: Any idea what its %Inh is? The compound is c1ccc(-c2ccc3c(-c4ccnc(Nc5ccc6c(c5)OCCO6)n4)cnn3n2)cc1
Output line: 11%

Input line: Any idea what its %Inh is? The compound is COc1ccc(-c2oc3ncnc(N)c3c2-c2ccc(OC)cc2)cc1
Output line: 0%

Input line: Any idea what its %Inh is? The compound is CCc1nc(-c2cccc(C)c2)c(-c2ccnc(NC(=O)c3ccccc3)c2)s1
Output line: 3%
